System: COLR-Ab isolates
test-description: BD Phoenix100 automated antibiotic susceptibility testing
Format: cell-based, Acinetobacter baumannii
measurement-setup: Acinetobacter baumannii, COLR-Ab5, BD Phoenix 100 system
measured-metric: MIC

[
  {
    "compound": "CCN[C@@H]1C[C@H](N)[C@@H](O[C@H]2OC(CN)=CC[C@H]2N)[C@H](O)[C@H]1O[C@H]1OC[C@](C)(O)[C@H](NC)[C@H]1O",
    "MIC": "> 4 µg/mL"
  },
  {
    "compound": "CNC(C)C1CCC(N)C(OC2C(N)CC(N)C(OC3OCC(C)(O)C(NC)C3O)C2O)O1 (centres unmarked)",
    "MIC": "> 4 µg/mL"
  },
  {
    "compound": "C[C@@H](O)[C@H]1C(=O)N2C(C(=O)O)=C(SCCN=CN)C[C@H]12",
    "MIC": "> 8 µg/mL"
  },
  {
    "compound": "C[C@@H](O)[C@H]1C(=O)N2C(C(=O)O)=C(S[C@@H]3CN[C@H](C(=O)N(C)C)C3)[C@H](C)[C@H]12",
    "MIC": "> 8 µg/mL"
  }
]

Now let's try a different one.
Give COLR-Ab isolates MIC for "NCC[C@H](O)C(=O)N[C@@H]1C[C@H](N)[C@@H](O[C@H]2O[C@H](CN)[C@@H](O)[C@H](O)[C@H]2O)[C@H](O)[C@H]1O[C@H]1O[C@H](CO)[C@@H](O)[C@H](N)[C@H]1O"
> 16 µg/mL
